Source: PubChem BioAssay (NCI)

- Test system: RPMI-8226 leukemia
- procedure text: NCI tumour cell line growth inhibition, 48 h
quantity kind: TGI (µM)
Write down the numeric answer in µM and omit the unit.

Past entries and their recorded results:
> print(dat)
                                   molecule  endpoint.result
1  CC(C)C1=C(O)C2=C(C(=O)C1=O)C1(C)CCCC(C)(C)C1C(O)C2OC=O (stereo unspecified)              6.9
2               Cc1ccccc1/C=C/C(=O)c1ccccc1             71.4
3  O=C(c1cccs1)C1NO[N+]([O-])=C1c1cccs1 (stereo unspecified)              6.2
4  COc1cc(/C=C2\CCC(C)/C(=C\c3cc(OC)c(OC)c(OC)c3)C2=O)cc(OC)c1OC (stereo unspecified)            0.901

Record for COc1nc2c(N3CCCC3)nc(N3CCNCC3)nc2nc1NCc1ccccc1 under target or system RPMI-8226 leukemia: TGI reported as 3.96

====

- Test system: A498 renal
- procedure text: NCI tumour cell line growth inhibition, 48 h; in the data active = GI50 below about 0.43 µM; inactive = the rest
Respond using exactly one of the listed classes: active, inactive

> print(dat)
                              record.smiles     label
1  O=[N+]([O-])c1ccc(-c2cc3c(Nc4ccc(Cl)c(C(F)(F)F)c4)ncnc3s2)cc1  inactive
2  COc1cccc2c(=O)c3c(sc12)c(NCCCNCCO)nc1ccccc13  inactive

// query // param item: CCN(CC)c1ccc(/C=C/C2=[N+](C)c3ccccc3C2(C)C)c(C)c1 ; yields the recorded call
// result active

// query What was the test verdict on COc1cc2nc(-c3ccc(C(F)(F)F)cc3)cc(OCCCN3CCCC3)c2cc1OC ?
// result inactive

// query Give the logged outcome of this assay for the following molecule: COc1ccc(Nc2nccc(N3CCN(c4c5ccc(Cl)cc5nc5ccc(OC)cc45)CC3)n2)cc1
// result inactive

====

- System: BT-549 breast
- procedure text: NCI tumour cell line growth inhibition, 48 h
Reported TGI values follow for various compounds
Please state the figure in µM; there is no need to write the unit.

Completed entries (count: 4):
> print(dat)
                                   compound  subject.of.test  endpoint.result
1  C/C(=C\CO)CC/C=C(\C)CNc1ccc([N+](=O)[O-])cc1    BT-549 breast             37.5
2           Cc1cc(O)c(-c2cc(O)c(C)cc2O)cc1O    BT-549 breast             26.7
3  CC(C)/C(Cl)=N/OC(=O)Nc1ccc(OC(F)(F)F)cc1    BT-549 breast             29.8
4  COP(=O)(OC)C(Nc1ccc(Cc2ccc(NC(c3ccco3)P(=O)(OC)OC)cc2)cc1)c1ccco1 (stereo not given)    BT-549 breast               60

# input for lookup
Entry under test: COc1cccc2c1OCC1Cc3ccccc3OC21 (stereo not given) . Its TGI was 52.2

====

- Tested on: MDA-MB-435
- procedure text: NCI tumour cell line growth inhibition, 48 h
We begin with a simple list: items and their reported TGI.
Provide the reading as a plain figure in µM.

Lookup result for CC(C)[O-].CC(C)[O-].CN(CCN(C)Cc1cc(F)cc(F)c1[O-])Cc1cc(F)cc(F)c1[O-].[Ti+4] ; measured TGI: 2.1

Form: compound = CCN(CC)c1ccc(/C=C/C2=[N+](C)c3ccccc3C2(C)C)c(C)c1 ; TGI = 1.32

Sample COc1ccc([C@H]2C=[N+]([O-])O[C@H](OC3CCCC3)[C@@H]2OC(C)=O)cc1OC ; TGI observed: 67.5

====

- Tested on: SF-268 CNS
- procedure text: NCI tumour cell line growth inhibition, 48 h
The entries below come with measured GI50 values attached.

Examples with answers:
> print(dat)
                                   compound  quantity.kind  endpoint.result
1  O=[N+]([O-])c1ccc(-c2cc3c(Nc4ccc(Cl)c(C(F)(F)F)c4)ncnc3s2)cc1           GI50          1.34 µM
2  COc1cccc(COc2cc(-n3cnc4ccccc43)sc2C(N)=O)c1           GI50          5.88 µM
3  CCN(CC)c1ccc(/C=C/C2=[N+](C)c3ccccc3C2(C)C)c(C)c1           GI50           0.1 µM
4  CC(=O)[CH-]C(=O)c1ccccc1.CC(=O)[CH-]C(=O)c1ccccc1.CC1(C)OCC(C2OC3OC(C)(C)OC3C2[O-])O1.CC[O-].[Ti+4] (stereo not given)           GI50          13.1 µM

API: the following record is the query input.
Please fill in: GI50 reported for Nc1cc(-c2ccc(Cl)cc2)nn1-c1nnc(/C=C/c2ccco2)c(=O)[nH]1 = 3.37 µM

====

- Test system: NCI-H226 lung
- procedure text: NCI tumour cell line growth inhibition, 48 h
quantity kind: GI50

> print(dat)
                              record.smiles  subject.of.test  endpoint.result
1  O=[N+]([O-])c1ccc(-c2cc3c(Nc4ccc(Cl)c(C(F)(F)F)c4)ncnc3s2)cc1    NCI-H226 lung          2890 nM
2  COc1ccc(-n2nc(C)c3c(Nc4ccc(NC(=O)Nc5ccc(Cl)c(C(F)(F)F)c5)cc4)ncnc32)cc1    NCI-H226 lung          2210 nM
3  O=C1c2ccccc2-c2c1c1c(NCCCO)nc3ccccc3c1n2Cc1ccccc1    NCI-H226 lung         41300 nM

Recorded result, CC(=Nc1ccc(S(N)(=O)=O)cc1)c1c(O)[nH]c2ccccc12 , GI50: > 23600 nM

Please fill in: GI50 reported for CCOC(=O)N1CCN(CCCCCOc2ccccc2C2CCCCC2)CC1 = 3960 nM

Entry CCCCCCCCCCCCCC[n+]1cccc(C(N)=O)c1 ; GI50 = 1630 nM

Reported GI50 ( CC(C)Oc1ccc(C(=O)Cn2ccnc2)cc1-n1c(CN2CCN(C(=O)COc3ccc(Cl)cc3)CC2)nc2ccccc2c1=O ) = 14500 nM

So, COc1cccc2c(=O)c3c(sc12)c(NCCCNCCO)nc1ccccc13 ? Its GI50 was 1600 nM

====

- Tested on: SNB-19 CNS
- procedure text: NCI tumour cell line growth inhibition, 48 h
quantity kind: TGI

# count of solved cases: 2
molecule	TGI
c1ccc([P+](CCCCCCCC[P+](c2ccccc2)(c2ccccc2)c2ccccc2)(c2ccccc2)c2ccccc2)cc1	> 100 µM
COc1cc2nc(-c3ccc(C(F)(F)F)cc3)cc(OCCCN3CCCC3)c2cc1OC	21.5 µM

# molecule O=S1(=O)C[C@@H](NCc2ccccc2)[C@H](NCc2ccccc2)C1 ; its TGI = > 100 µM

get_value(item= O=S1CSSC1 , readout=TGI) returns > 100 µM

The value of TGI measured for the molecule C[C@H]1[C@H](C)CC[C@]2(C(=O)OC3OC(CO)C(O)C(O)C3O)CC[C@]3(C)C(=CC[C@@H]4[C@@]5(C)C[C@H]6OC(=O)c7cc(O)c(O)c(O)c7-c7c(cc(O)c(O)c7O)C(=O)O[C@@H]6C(CO)(CO)[C@@H]5CC[C@]43C)[C@H]12 (stereo partly drawn) turned out to be > 100 µM

According to the records, this molecule CC(=O)[CH-]C(=O)c1ccccc1.CC(=O)[CH-]C(=O)c1ccccc1.CC1(C)OCC(C2OC3OC(C)(C)OC3C2[O-])O1.CC[O-].[Ti+4] (stereo not drawn) displays TGI of 25.4 µM

Lab note: O=S1(=O)c2cnccc2NC(=NCc2ccccc2)N1c1ccccc1 gave TGI of > 100 µM

// field: TGI; key: COc1ccc(F)c(F)c1C(=O)c1cnc(NC2CCN(S(C)(=O)=O)CC2)nc1N ; value = > 100 µM

====

- Tested on: RXF-631 renal
- procedure text: NCI tumour cell line growth inhibition, 48 h
Listing of recorded TGI by entry.
Kindly answer with a numeric value in µM, unit omitted.

> print(dat)
                                   compound  unit.label  endpoint.result
1  COc1cc(C2c3cc4c(cc3[C@@H](Nc3ccc5c(c3)OCCO5)C3COC(=O)[C@H]23)OCO4)cc(OC)c1O (some centres not stated)          µM             3.51

Noted for C=C1C2Oc3ccccc3C1N(c1ccccc1)O2 (configuration not stated) : its TGI reads 45.6

Form field TGI, entry C[C@]12C/C(=C/O)C(=O)C(O)=C1CC[C@@H]1C2CC[C@@]2(C)C1CC[C@@H]2O (some centres not stated) : 48.8

====

- Tested on: CCRF-CEM leukemia
- procedure text: NCI tumour cell line growth inhibition, 48 h
Values of TGI greater than or equal to 40 µM map to yes; values below map to no.

Answered examples (6):
> print(dat)
                                   compound  label
1  O=S1(=O)C[C@@H](NCc2ccccc2)[C@H](NCc2ccccc2)C1    yes
2     Cc1cc(C)n(C2=NS(=O)(=O)c3ccccc3N2C)n1    yes
3          CSc1ccc(N(C)c2nc(C)nc3c2CCC3)cc1    yes
4               Cc1ccccc1/C=C/C(=O)c1ccccc1    yes
5  COc1ccc([C@H]2C=[N+]([O-])O[C@H](OC3CCCC3)[C@@H]2OC(C)=O)cc1OC     no
6  CC(C)(C)OC(=O)NC1CCCC1=O (stereo unspecified)    yes

// query Does the reported TGI for CCCCCCCCCCCC1CC(=O)NCCCN(C)CCCCN(C)CCCN1C (stereo unspecified) fall at or above the 40 µM mark?
// result no

// query Is TGI at least 40 µM? Consider CN1c2ccccc2SC2C(c3ccccc3)=NOC21 (stereo unspecified)
// result yes

// query # check: TGI of CCCCCCC(C)CCCCCCCCCCC(=O)O (stereo unspecified) is greater than or equal to 40 µM
// result yes

// query Reported TGI at or above 40 µM? CN(C)c1cccc2c1C(=O)C=CC21c2ccc(N(C)C)c3c(N(C)C)ccc(c23)C(c2ccccc2)C1c1ccccc1 (stereo unspecified)
// result no
